The reported numbers originate from ChEMBL document CHEMBL4808182.

Assign clearance to each entry below.
- Protocol Details: Plasma clearance in iv dosed Beagle dog measured up to 24 hrs by LC-MS analysis
- Type: ADME, organism-based, Canis lupus familiaris

Entry C[C@H]([C@H](C(=O)Nc1cc(CC2(C(=O)O)CC2)ccc1Cl)c1ccc(Cl)cc1)C(F)(F)F has what clearance?
25 mL/min/kg

How about this compound: C[C@H]([C@H](C(=O)Nc1cccc(CCC(=O)O)c1)c1ccc(CN2N=C(c3ccccc3)OCC2=O)cc1)C(F)(F)F
23.3 mL/min/kg

Another compound to look at: O=C(O)CCc1cccc(NC(=O)[C@H](c2ccc(CN3N=C(c4ccccc4)OCC3=O)cc2)C2CCCC2)c1
2.67 mL/min/kg

Request: O=C(NCCCCC1(C(=O)O)CC1)[C@H](c1ccc(CN2N=C(c3ccccc3)OCC2=O)cc1)C1CCCC1
30 mL/min/kg

Another compound to check: C[C@H]([C@H](C(=O)Nc1cc(C[C@H](C)C(=O)O)ccc1Cl)c1ccc(Cl)cc1)C(F)(F)F
6.33 mL/min/kg

Cool, now O=C(Nc1cccc(CC2(C(=O)O)CC2)c1)[C@H](c1ccc(CN2N=C(c3ccccc3)OCC2=O)cc1)C1CCCC1
13.7 mL/min/kg

====

Would you kindly list Vd for each of these compounds?
- Protocol Details: Volume of distribution at steady state in iv dosed Beagle dog measured up to 24 hrs by LC-MS analysis
- Type: ADME, organism-based, Canis lupus familiaris
- Setup Conditions: in vivo, read-out: Vdss
Hi! Could you send only the number? It should be in L/kg, unit omitted.

Entry C[C@H]([C@H](C(=O)Nc1cc(C[C@H](C)C(=O)O)ccc1Cl)c1ccc(Cl)cc1)C(F)(F)F has what Vd?
2.1

// repeat for C[C@H]([C@H](C(=O)Nc1cc(CC2(C(=O)O)CC2)ccc1Cl)c1ccc(Cl)cc1)C(F)(F)F and report
3

====

- Protocol Details: Oral bioavailability in cynomolgus monkey measured up to 24 hrs by LC-MS analysis
- Format: ADME, organism-based, Macaca fascicularis
- Setup Conditions: in vivo
Experimental Readout: bioavailability (%)
Use % as the unit, but write only the number.

Given the entry C[C@H]([C@H](C(=O)Nc1cc(C[C@H](C)C(=O)O)ccc1Cl)c1ccc(Cl)cc1)C(F)(F)F , report its measured bioavailability.
100

====

- Protocol Details: Volume of distribution at steady state in iv dosed cynomolgus monkey measured up to 24 hrs by LC-MS analysis
- Format: ADME, organism-based, Macaca fascicularis
- Setup Conditions: in vivo, read-out: Vdss
Experimental Readout: Vd (L/kg)
Your answer should be a plain number; it is taken to be in L/kg.

Form field: reported Vd of C[C@H]([C@H](C(=O)Nc1cc(C[C@H](C)C(=O)O)ccc1Cl)c1ccc(Cl)cc1)C(F)(F)F
0.55

====

- Protocol Details: Plasma clearance in iv dosed cynomolgus monkey measured up to 24 hrs by LC-MS analysis
- Assay type: ADME, organism-based, Macaca fascicularis
Would you mind telling me the reported clearance of each entry?
Answer in mL/min/kg, number only, no unit symbol.

Name the reported clearance value associated with the compound C[C@H]([C@H](C(=O)Nc1cc(CC2(C(=O)O)CC2)ccc1Cl)c1ccc(Cl)cc1)C(F)(F)F
4

Another compound to check: O=C(Nc1cccc(CC2(C(=O)O)CC2)c1)[C@H](c1ccc(CN2N=C(c3ccccc3)OCC2=O)cc1)C1CCCC1
30

Consider next the compound O=C(NCCCCC1(C(=O)O)CC1)[C@H](c1ccc(CN2N=C(c3ccccc3)OCC2=O)cc1)C1CCCC1 in the same way.
23.3

Another compound to look at: C[C@H]([C@H](C(=O)Nc1cc(C[C@H](C)C(=O)O)ccc1Cl)c1ccc(Cl)cc1)C(F)(F)F
0.833

Proceed to C[C@H]([C@H](C(=O)Nc1cccc(CCC(=O)O)c1)c1ccc(CN2N=C(c3ccccc3)OCC2=O)cc1)C(F)(F)F
16.7

Further, for O=C(O)CCc1cccc(NC(=O)[C@H](c2ccc(CN3N=C(c4ccccc4)OCC3=O)cc2)C2CCCC2)c1 ?
14.3

====

- Protocol Details: Half life in iv dosed Wistar rat measured up to 24 hrs by LC-MS analysis
- Assay type: ADME, organism-based
- Setup Conditions: in vivo
Experimental Readout: half-life (h)
A number alone suffices; assume h.

For C[C@H]([C@H](C(=O)Nc1cc(C[C@H](C)C(=O)O)ccc1Cl)c1ccc(Cl)cc1)C(F)(F)F , what is its reported half-life?
13

Please give the result for C[C@H]([C@H](C(=O)Nc1cc(CC2(C(=O)O)CC2)ccc1Cl)c1ccc(Cl)cc1)C(F)(F)F too.
4.3

====

- Measured Target: Guanylate cyclase soluble subunit alpha-1 (Rattus norvegicus) (UniProt P19686)
- Protocol Details: Activation of recombinant rat sGC alpha1 subunit expressed in CHO cells assessed as induction of [32P-cGMP] formation by measuring efficacy using alpha-[32P-GTP] as substrate measured after 6 mins by luminescence assay relative to control
- Format: cell-based
Provide the reported Efficacy of each item.
Quick note: give the figure in %, leave out the unit.

Suppose we examine the compound C[C@H]([C@H](C(=O)Nc1cc(CC2(C(=O)O)CC2)ccc1F)c1ccc(Cl)cc1)C(F)(F)F ; what Efficacy value has been reported?
34

Same again, this time with C[C@H]([C@H](C(=O)Nc1ccc(Cl)c(CC2(C(=O)O)CC2)c1)c1ccc(Cl)cc1)C(F)(F)F
1.2

Here is the next compound: Cc1c(CCC(=O)O)cccc1NC(=O)[C@H](c1ccc(Cl)cc1)C1CCCC1
19

Next up: C[C@H]([C@H](C(=O)Nc1cc(C2(CC(=O)O)CCC2)ccc1Cl)c1ccc(Cl)cc1)C(F)(F)F
37

Input C[C@H]([C@H](C(=O)Nc1cccc(CC2(C(=O)O)CC2)c1Cl)c1ccc(Cl)cc1)C(F)(F)F
19

One more compound: Cc1c(CCC(=O)O)cccc1NC(=O)[C@H](c1ccc(Cl)cc1)[C@@H](C)C(F)(F)F
18

What do you have for C[C@H]([C@H](C(=O)Nc1cccc(CC2(C(=O)O)CC2)c1)c1ccc(Cl)cc1)C(F)(F)F ?
4

====

I'd be grateful if you could share measured MEC for these entries.
- Measured Target: Guanylate cyclase soluble subunit alpha-1 (Rattus norvegicus) (UniProt P19686)
- Sequence (whole entry): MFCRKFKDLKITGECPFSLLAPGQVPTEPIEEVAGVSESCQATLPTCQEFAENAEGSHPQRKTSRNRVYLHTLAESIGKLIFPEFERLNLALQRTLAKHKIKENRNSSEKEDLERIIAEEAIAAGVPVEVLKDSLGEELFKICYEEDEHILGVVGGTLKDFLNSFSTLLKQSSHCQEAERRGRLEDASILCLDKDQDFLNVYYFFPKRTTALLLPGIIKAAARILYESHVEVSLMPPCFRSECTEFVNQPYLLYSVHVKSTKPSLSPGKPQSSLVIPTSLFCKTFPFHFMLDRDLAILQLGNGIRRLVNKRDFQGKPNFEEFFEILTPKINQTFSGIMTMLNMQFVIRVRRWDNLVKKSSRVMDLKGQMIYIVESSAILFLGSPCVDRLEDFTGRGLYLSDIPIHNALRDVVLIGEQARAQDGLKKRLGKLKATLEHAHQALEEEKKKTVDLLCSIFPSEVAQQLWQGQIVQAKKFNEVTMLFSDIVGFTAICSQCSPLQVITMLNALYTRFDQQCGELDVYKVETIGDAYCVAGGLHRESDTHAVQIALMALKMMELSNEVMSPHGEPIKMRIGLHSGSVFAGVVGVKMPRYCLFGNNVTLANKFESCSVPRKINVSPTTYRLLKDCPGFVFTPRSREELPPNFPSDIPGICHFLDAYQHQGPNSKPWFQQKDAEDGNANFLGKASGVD
- Protocol Details: Activation of recombinant rat sGC alpha1 subunit expressed in CHO cells assessed as induction of [32P-cGMP] formation using alpha-[32P-GTP] as substrate measured after 6 mins by luminescence assay
- Assay type: cell-based
- Setup Conditions: filed as activator
Provide only the numeric value, understood in nM.

For Cc1c(CCC(=O)O)cccc1C(=O)NC(c1ccc(CN2N=C(c3ccccc3)OCC2=O)cc1)C1CCCC1 (centres undefined) , what is its reported MEC?
3000

Now the compound C[C@H]([C@H](C(=O)Nc1cc(CC2(C(=O)O)CC2)ccc1Cl)c1ccc(Cl)cc1)C(F)(F)F
0.3

Next compound up: O=C(Nc1cccc(CC2(C(=O)O)CC2)c1)[C@H](c1ccc(CN2N=C(c3ccccc3)OCC2=O)cc1)C1CCCC1
1

Next compound: CCc1ccc([C@@H](C(=O)Nc2cc(C3(CC(=O)O)CC3)ccc2F)[C@@H](C)C(F)(F)F)cc1
10

====

- Protocol Details: Volume of distribution at steady state in iv dosed Wistar rat measured up to 24 hrs by LC-MS analysis
- Type: ADME, organism-based
- Setup Conditions: in vivo, read-out: Vdss
Experimental Readout: Vd (L/kg)
All answers are understood in L/kg, so give the number only.

Form field: reported Vd of C[C@H]([C@H](C(=O)Nc1cc(C[C@H](C)C(=O)O)ccc1Cl)c1ccc(Cl)cc1)C(F)(F)F
2

And what about the compound C[C@H]([C@H](C(=O)Nc1cc(CC2(C(=O)O)CC2)ccc1Cl)c1ccc(Cl)cc1)C(F)(F)F ?
1.5
